Data credit: patent US20240116985A1

# target.system: T1, B-cat-Halo (UniProt P35222 1-781)
# T1 sequence (looked up): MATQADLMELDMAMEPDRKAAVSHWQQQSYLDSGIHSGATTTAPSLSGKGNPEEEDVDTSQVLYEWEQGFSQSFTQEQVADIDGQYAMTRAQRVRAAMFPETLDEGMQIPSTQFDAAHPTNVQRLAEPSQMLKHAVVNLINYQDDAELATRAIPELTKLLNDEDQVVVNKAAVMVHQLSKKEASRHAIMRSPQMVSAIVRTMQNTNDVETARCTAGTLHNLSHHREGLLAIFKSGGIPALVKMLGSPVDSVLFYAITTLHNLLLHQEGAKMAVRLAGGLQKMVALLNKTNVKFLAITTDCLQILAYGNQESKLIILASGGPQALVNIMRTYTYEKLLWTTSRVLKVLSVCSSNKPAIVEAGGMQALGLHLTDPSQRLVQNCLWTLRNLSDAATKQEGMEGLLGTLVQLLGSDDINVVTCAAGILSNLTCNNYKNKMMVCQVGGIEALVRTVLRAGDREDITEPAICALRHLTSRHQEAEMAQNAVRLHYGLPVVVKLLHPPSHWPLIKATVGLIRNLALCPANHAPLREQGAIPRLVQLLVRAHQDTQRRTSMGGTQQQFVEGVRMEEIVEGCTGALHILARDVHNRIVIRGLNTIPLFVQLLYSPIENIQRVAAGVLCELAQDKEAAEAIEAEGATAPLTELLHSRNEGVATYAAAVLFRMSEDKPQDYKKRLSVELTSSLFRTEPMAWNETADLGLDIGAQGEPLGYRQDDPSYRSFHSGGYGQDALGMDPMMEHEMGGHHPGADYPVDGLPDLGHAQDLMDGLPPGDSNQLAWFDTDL
# assay.summary: cell-based or functional assay
Starred links: 1 amine or outer side, 2 acyl side, 3 side chain; linkers in the order of their positions; H or OH if unused. Positions of bridges follow the written chain, without caps; N, C: chain ends. Non-standard residues stand in square brackets, D forms with d. Primed or numbered codes have the meaning given here. *: point of attachment. B5(10) = 2-amino-2-(pent-4-en-1-yl)hept-6-enoic acid, bis(4-pentenyl)glycine, stitching residue bearing both staples, C=CCCCC(CCCC=C)(N[*:1])C(=O)[*:2]; B5(33) = 2-amino-2-(pent-4-en-1-yl)hept-6-enoic acid (bis-pentenylglycine, two olefin side chains), C=CCCCC(CCCC=C)(N[*:1])C(=O)[*:2]; PyrS2 = (S)-3-amino-1-((pent-4-en-1-yloxy)carbonyl)pyrrolidine-3-carboxylic acid, C=CCCCOC(=O)N1CC[C@@](N[*:1])(C(=O)[*:2])C1; Phe(2-Cl) = N[C@@H](Cc1ccccc1Cl)C(=O)O; Bta = N[C@@H](Cc1csc2ccccc12)C(=O)O; Lys(iPr) = CC(C)NCCCC[C@H](N)C(=O)O; αAllylPro = C=CC[C@@]1(C(=O)O)CCCN1; tBuAla = CC(C)(C)C[C@H](N)C(=O)O; Propanoyl(3-OMe) = COCCC(=O)*
recorded.endpoint: NanoBRET Abs IC50 (µM)
Give bare numbers, in µM.

Prompt line: Find the recorded NanoBRET Abs IC50 belonging to {Propanoyl(3-OMe)}-[αAllylPro]D[tBuAla][B5(33)]DDAAFN[PyrS2][Phe(2-Cl)][Bta][dT]-NH2 (staple 1-4, 4-11 (inferred); not fully specified; printed as MeOPr-PL3-Asp-Npg-B5-Asp-Asp-Ala-Ala-Phe-Asn-PyrS2-2C1F-BztA-dThr-NH2) [I-1259] and report it.
Response line: 18.1

Prompt line: Find the recorded NanoBRET Abs IC50 belonging to Ac-[αAllylPro]D[tBuAla][B5(33)]DTAAFT[PyrS2]F[Bta]S-NH2 (staple 1-4, 4-11 (inferred); not fully specified; printed as Ac-PL3-Asp-Npg-B5-Asp-Thr-Ala-Ala-Phe-Thr-PyrS2-Phe-BztA-Ser-NH2) [I-1263] and report it.
Response line: 20

Continuing:
Prompt line: Find the recorded NanoBRET Abs IC50 belonging to Ac-[αAllylPro]D[tBuAla][B5(10)]DDAAF[Lys(iPr)][PyrS2][Phe(2-Cl)][Bta]T-NH2 (staple 1-4, 4-11) [I-1279] and report it.
Response line: 22.9
